target: SARS-CoV-2 3CL^pro (Severe acute respiratory syndrome coronavirus 2); test: Bio-layer interferometry (BLI) kinetic binding assay; settings: ForteBio Octet System
pKd: −log10 of the molar value.

[
  {
    "compound": "COc1ccc(S(=O)(=O)N(CC(C)O)CC(O)C(Cc2ccccc2)NC(=O)C2(O)CC(O)C(O)C(OC(=O)C=Cc3ccc(O)c(O)c3)C2)cc1 (centres unmarked)",
    "pKd": 4.21
  },
  {
    "compound": "COc1ccc(S(=O)(=O)N(CC(C)O)CC(O)C(Cc2ccccc2)NC(=O)c2ccc(O)c(O)c2)cc1 (centres unmarked)",
    "pKd": 4.28
  }
]
